Form field: EC50 (one value per entry).
# ASSAY TARGET: human GLP-1 receptor (Homo sapiens)
# Sequence (P43220 24-463): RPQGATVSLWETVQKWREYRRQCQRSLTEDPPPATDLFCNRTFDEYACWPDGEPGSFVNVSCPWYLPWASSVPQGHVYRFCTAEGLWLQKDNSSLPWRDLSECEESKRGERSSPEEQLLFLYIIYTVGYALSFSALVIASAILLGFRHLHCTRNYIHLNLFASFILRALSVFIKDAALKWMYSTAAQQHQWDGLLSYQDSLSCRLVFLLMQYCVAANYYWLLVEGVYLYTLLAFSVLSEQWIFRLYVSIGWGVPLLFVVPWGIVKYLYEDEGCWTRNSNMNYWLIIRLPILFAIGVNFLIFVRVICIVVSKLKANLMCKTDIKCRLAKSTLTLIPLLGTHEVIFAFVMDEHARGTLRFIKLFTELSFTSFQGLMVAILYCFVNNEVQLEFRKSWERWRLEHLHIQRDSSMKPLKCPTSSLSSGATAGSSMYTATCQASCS
# METHOD SUMMARY: GLP-1R cAMP assay (cAMP accumulation in CHO cells stably overexpressing the human GLP-1 receptor, HitHunter kit)
# APPLIED CONDITIONS: CHO cells stably overexpressing human GLP-1R, 30 min, 20-point dose response in triplicate

Completed entries (count: 5):
C[C@H]1C[C@@H](Oc2ccnc(CNc3ncc(F)cc3Cl)n2)CCN1Cc1nc2ccc(C(=O)O)cc2n1C[C@@H]1CCO1 [Compound 624]; 1 to 10 nM
C[C@H]1C[C@@H](Oc2ccnc(COc3ncc(C#N)cc3F)n2)CCN1Cc1nc2c(F)cc(C(=O)O)cc2n1CCOCC(F)(F)F [Compound 636]; 0.1 to 1 nM
C[C@H](Cn1c(CN2CC[C@H](Oc3ccnc(COc4ncc(Cl)cc4F)n3)C[C@@H]2C)nc2ccc(C(=O)O)cc21)OC(F)F [Compound 602]; 0.1 to 1 nM
N#Cc1ccc(OCc2nccc(O[C@H]3CCN(Cc4nc5ccc(C(=O)O)cc5n4C[C@@H]4CCO4)C[C@H]3F)n2)c(F)c1 [Compound 552]; 0.1 to 1 nM
C[C@H]1C[C@@H](Oc2ccnc(COc3ncc(Cl)cc3F)n2)CCN1Cc1nc2ccc(C(=O)O)cc2n1C[C@@H]1CCO1 [Compound 554]; < 0.1 nM

*Q* Dear colleague, please send me the reported EC50 for COC1(Cn2c(CN3CC[C@H](Oc4ccnc(COc5ccc(F)cc5F)n4)C[C@@H]3C)nc3ccc(C(=O)O)cc32)CCC1 [Compound 600] when you can.
*A* 0.1 to 1 nM

*Q* Dear colleague, please send me the reported EC50 for N#Cc1ccc(OCc2nccc(O[C@H]3CCN(Cc4nc5ccc(C(=O)O)cc5n4C[C@@H]4CCO4)C[C@@H]3F)n2)c(F)c1 [Compound 553] when you can.
*A* 0.1 to 1 nM

*Q* Dear colleague, please send me the reported EC50 for C[C@H]1C[C@@H](Oc2ccnc(COc3ncc(F)cc3C#N)n2)CCN1Cc1nc2ccc(C(=O)O)cc2n1C[C@@H]1CCO1 [Compound 630] when you can.
*A* 0.1 to 1 nM

*Q* Dear colleague, please send me the reported EC50 for C[C@H]1C[C@@H](Oc2ccnc(COc3ccc(F)cc3F)n2)CCN1Cc1nc2c(F)cc(C(=O)O)cc2n1C[C@@H]1CCO1 [Compound 576] when you can.
*A* < 0.1 nM

*Q* Dear colleague, please send me the reported EC50 for C[C@H]1C[C@@H](Oc2ccnc(COc3ccc(F)cc3F)n2)CCN1Cc1nc2ccc(C(=O)O)cc2n1CC1CCC1 [Compound 590] when you can.
*A* 0.1 to 1 nM

*Q* Dear colleague, please send me the reported EC50 for C[C@H]1C[C@@H](Oc2ccnc(COc3ncc(F)cc3F)n2)CCN1Cc1nc2ccc(C(=O)O)cc2n1C[C@@H]1CCCO1 [Compound 632] when you can.
*A* 0.1 to 1 nM

*Q* Dear colleague, please send me the reported EC50 for C[C@H]1C[C@@H](Oc2ccnc(NCc3ccc(F)cc3F)n2)CCN1Cc1nc2ccc(C(=O)O)cc2n1C[C@@H]1CCO1 [Compound 614] when you can.
*A* 0.1 to 1 nM

*Q* Dear colleague, please send me the reported EC50 for CC(c1nc2ccc(C(=O)O)cc2n1C[C@@H]1CCO1)N1CC[C@H](Oc2ccnc(COc3ccc(F)cc3F)n2)C[C@@H]1C (mixture of isomers) [Compound 568] when you can.
*A* 0.1 to 1 nM

*Q* Dear colleague, please send me the reported EC50 for CC[C@@H]1C[C@H](Oc2ccnc(COc3ncc(Cl)cc3F)n2)CCN1Cc1nc2ccc(C(=O)O)cc2n1C[C@@H]1CCO1 [Compound 609] when you can.
*A* 10 to 100 nM
